biological target: RutR (RutR-His6; YcdC) (Escherichia coli, UniProt P0ACU2); assay: EMSA, inhibition of RutR binding to […]-labelled carP1
Sequence (P0ACU2 whole entry): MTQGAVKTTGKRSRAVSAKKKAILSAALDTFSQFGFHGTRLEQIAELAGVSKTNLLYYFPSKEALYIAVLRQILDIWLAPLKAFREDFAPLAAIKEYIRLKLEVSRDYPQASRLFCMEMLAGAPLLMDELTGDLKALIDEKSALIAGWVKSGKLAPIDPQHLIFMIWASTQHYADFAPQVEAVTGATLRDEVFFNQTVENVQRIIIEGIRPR
observable: IC50

{"molecule": "O=c1cc[nH]c(=O)[nH]1 [uracil]", "reported": "~100 nM"}
